Would you mind telling me the reported concentration at 3 h of each entry?
- MEASUREMENT_PROTOCOL: Clinical pharmacokinetics, plasma LC-MS/MS after single oral dose of AP capsules
- Type: in vivo, human (healthy volunteers)
- TEST_CONDITIONS: human, plasma, oral, 2000 mg, S4; 3.00 h; 2000 mg AP capsules; read-out: Plasma concentration

• C=C1CC[C@@H]2[C@](C)(CO)[C@H](O)CC[C@@]2(C)[C@@H]1CCC1=CCOC1=O [14-deoxyandrographolide] = 1.92 ng/mL

Working through the 2 compounds below one at a time, give concentration at 3 h for each.
1. C=C1CC[C@@H]2[C@](C)(CO[C@@H]3O[C@H](CO)[C@@H](O)[C@H](O)[C@H]3O)CCC[C@@]2(C)[C@@H]1CCC1=CCOC1=O [neoandrographolide]
2. C=C1CC[C@@H]2[C@](C)(CO)[C@H](O)CC[C@@]2(C)[C@@H]1C/C=C1/C(=O)OC[C@H]1O [andrographolide]

["43.9 ng/mL", "4.2 ng/mL"]

====

- MEASUREMENT_PROTOCOL: Clinical pharmacokinetics, plasma LC-MS/MS after single oral dose of AP capsules
- Type: in vivo, human (healthy volunteers)
- TEST_CONDITIONS: human, plasma, oral, 2000 mg, S3; 3.50 h; 2000 mg AP capsules; read-out: Plasma concentration
RESULT_TYPE: concentration at 3.5 h (ng/mL)
Answers are plain numbers, in ng/mL.

- C=C1CC[C@@H]2[C@](C)(CO)[C@H](O)CC[C@@]2(C)[C@@H]1C/C=C1/C(=O)OC[C@H]1O [andrographolide]: 0
- C=C1CC[C@@H]2[C@](C)(CO)[C@H](O)CC[C@@]2(C)[C@@H]1CCC1=CCOC1=O [14-deoxyandrographolide]: 0

Let us examine a further case.
Dear colleague, I am looking for the recorded concentration at 3.5 h of the following compound: C=C1CC[C@@H]2[C@](C)(CO[C@@H]3O[C@H](CO)[C@@H](O)[C@H](O)[C@H]3O)CCC[C@@]2(C)[C@@H]1CCC1=CCOC1=O [neoandrographolide]
0

====

Would you mind telling me the reported concentration at 4 h of each entry?
- MEASUREMENT_PROTOCOL: Clinical pharmacokinetics, plasma LC-MS/MS after single oral dose of AP capsules
- Assay type: in vivo, human (healthy volunteers)
- TEST_CONDITIONS: human, plasma, oral, 2000 mg, S5; 4.00 h; 2000 mg AP capsules; read-out: Plasma concentration
- Method: The protocol was published (Tee et al. [2022]). Seven calibrators ranging from 1, 2, 5,10, 20, 50, and 100 ng mL^−1 were prepared. […] Pharmacokinetic parameters were determined from plasma samples (5 subjects, 15 time points) analyzed via LC–MS/MS (Shimadzu 8060NX). […]
Answers are plain numbers, in ng/mL.

Recorded concentration at 4 h, per entry:
* C=C1CC[C@@H]2[C@](C)(CO[C@@H]3O[C@H](CO)[C@@H](O)[C@H](O)[C@H]3O)CCC[C@@]2(C)[C@@H]1CCC1=CCOC1=O [neoandrographolide] | 18.5
* C=C1CC[C@@H]2[C@](C)(CO)[C@H](O)CC[C@@]2(C)[C@@H]1C/C=C1/C(=O)OC[C@H]1O [andrographolide] | 0.54

Let us examine a further case.
Dear colleague, I am looking for the recorded concentration at 4 h of the following compound: C=C1CC[C@@H]2[C@](C)(CO)[C@H](O)CC[C@@]2(C)[C@@H]1CCC1=CCOC1=O [14-deoxyandrographolide]
1.36
